Where do the numbers come from? From the supplement of paper PMC8728848.

assayed.target: Man(a1-3)[Man(a1-6)]Man(b1-4)GlcNAc(b1-4)GlcNAc
assay.comment: glycan array binding signal (z-score within array); higher = stronger binding
experimental.conditions: glycan notation: IUPAC condensed, linker removed
This excerpt belongs to a sample that is enriched for the strongest signals.
Assign Yes to entries whose glycan array binding signal (z-score) meets or exceeds 0.8; assign No to the rest.

[
  {
    "binder": "HFR-3 (Triticum aestivum) (protein) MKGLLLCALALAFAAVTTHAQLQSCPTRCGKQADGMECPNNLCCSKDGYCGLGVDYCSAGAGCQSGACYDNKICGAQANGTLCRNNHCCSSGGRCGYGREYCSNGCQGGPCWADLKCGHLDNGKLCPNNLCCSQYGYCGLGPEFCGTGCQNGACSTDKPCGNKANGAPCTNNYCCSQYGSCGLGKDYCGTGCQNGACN",
    "assigned.label": "Yes"
  },
  {
    "binder": "Clrb (Mus musculus) (protein) ITGATKTEQIPVNKTYAACPQNWIGVENKCFYFSEYPSNWTFAQAFCMAQEAQLARFDNQDELNFLMRYKANFDSWIGLHRESSEHPWKWTDNTEYNNTIPIRGEERFAYLNNNGISSTRIYSLRMWICSKLNSYSLHCQTPFFPSGTKHHHHHHHHG",
    "assigned.label": "No"
  },
  {
    "binder": "NPA (Narcissus pseudonarcissus), C0HM45 (protein) DNILYSGETLSPGEFLNNGRYVFIMQEDCNLVLYDVDKPIWATNTGGLDRRCHLSMQSDGNLVVYSPRNNPIWASNTGGENGNYVCVLQKDRNVVIYGTARWATGTNIH",
    "assigned.label": "Yes"
  }
]

Identify whether the reported glycan array binding signal (z-score) of the following binder is 0.8 or greater: PP2A1 (Arabidopsis thaliana) (protein) MFRNQDSKYLIPVQKEAPPVTTLPMKASTVKSPHNCEAILRDADPPISLSSVNLSEQLRSGVFLKPKKQIKYWVDERNSNCFMLFAKNLSITWSDDVNYWTWFTEKESPNENVEAVGLKNVCWLDITGKFDTRNLTPGIVYEVVFKVKLEDPAYGWDTPVNLKLVLPNGKEKPQEKKVSLRELPRYKWVDVRVGEFVPEKSAAGEITFSMYEHAAGVWKKGLSLKGVAIRPKQHHHHHH
Yes

Identify whether the reported glycan array binding signal (z-score) of the following binder is 0.8 or greater: T7P4 (Tuber borchii) (protein) GSHIGPYMSFYASSEDVRTIEEGGRTWLVGRARRADGSWQDIKLDLDNIIGNRDGHLTWGEQNFTQSASDIRFNFEGSNVPVLRAKLRNAAGGEQESDLNLGERLTNNNGDLVFN
No

Identify whether the reported glycan array binding signal (z-score) of the following binder is 0.8 or greater: Crocus Lectin (Crocus vernus), Q9FVA1 (protein) MAKSLVLSSLLLALLLAAPLASLADNNVLLTGDVLHTDNQLSFESAAFVMQGDCNLVLYNEAGGFQSNTHGRGVGCTLRLNNFGQLEIHSANSNTPVWVSLRNGIPVRGDYAAVLGPDQHVTIYGPAIWSTPAPNRHERGATVSNIPRVRNVLFSSQVMSDNAQLATRDYSLVMRDDCNLALTKGSKTNIVWESGTSGRGQHCFMRLGHTGLIEISDDRLNTVWRSNTVGQEGDYVLILQINGQAVVYGPAVWSTASPARGGASAAL
Yes
